Taken from patent US20180334496A1.

# target: T1, recombinant human CFD, His-tagged (human, UniProt P00746 26-253)
# T1 construct: also called rhCFD-His
# T1 sequence (P00746 26-253 limits assumed): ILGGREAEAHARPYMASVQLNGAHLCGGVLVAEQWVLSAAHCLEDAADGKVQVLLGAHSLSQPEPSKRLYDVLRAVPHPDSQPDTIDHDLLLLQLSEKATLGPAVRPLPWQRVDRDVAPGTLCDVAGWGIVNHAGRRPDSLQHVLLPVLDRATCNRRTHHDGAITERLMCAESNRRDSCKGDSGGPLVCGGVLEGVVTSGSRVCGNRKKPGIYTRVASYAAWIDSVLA
# assay remarks: SPR MX96
Please respond with true when measured Kd is strictly beneath 20 nM, and with false in all other cases.

Problem: Answer whether the binder KCD110 (antibody, V domains shown) VH: EVQLQQSGPELVKPGASVKISCKASGYSFTGYYMHWVKQSHGNILDWIGYIDPDNGVSSKNQKFTGKATVTADKSSSTAYMELRSLTSEDSAVYYCAGYYGSSWYWYFDVWGTGTTVTVSS VL: QIVLSQSPAILSASPGEKVTMTCRASSSVSYMHWYQQKPGSSPKPWIYATSNLASGVPARFSGSGSGTSYSLTISRVEAEDAATYYCQQWSSNPYTFGGGTKLEIK has Kd strictly less than 20 nM
Solution: true

Problem: Field entry: KCD033 (antibody, V domains shown) VH: EVQLQQSGPELVKPGASMKISCTASGYSFTGYTMTWVKQSHGKNLEWIGLINPYNGGTNYNQKFKGKATLTVDKSSSIAYMELLSLTSEDSAVYYCARRHYGSNWDYWGQGTTLTVSS VL: DIKLTQSPSSIYTSLGERVTITCKASQDINTYLSWFQQRPGKSPKTLIYRADRLVDGVPSRVRGSGSGQDYSLTISSLEYEDMGIYYCLQYDEFPYTFGGGTKLEIK
Solution: true

Problem: Now the binder KCD128 (antibody, V domains shown) VH: QVQLQQPGAELVRPESSVKLSCKASGYTFTSYWMDWVMQRPGQGLEWIGNIYPSGSETHYNQKFKDKATLTVDKSSTTAYMQLSSLTFEDSAVYYCARSGFIGSRYLYYFDYWGQGTTLTVSS VL: DIVMTQSHKFMSTSVGDRVTITCKASQDVSNAVAWYQLKPGQSPKLLIYSASYRYTGVPDRFTGSGSGTDFTFTISSVQAADLAVYYCQQHYITPYTFGGGTKLEIK
Solution: true

Problem: Next entry: KCD042 (antibody, V domains shown, chimeric) VH: EVQLQQSGAELVKPGASVRLSCTASGFNIKHTYIHWVSQRPEQGLEWIGKIDPANGNTKYDPKFQGKATITADTSSNTAYLQLSSLTSEDTAVYYCVNAMEYWGQGTSVTVSS VL: QSVLTQSPAIMSASPGEKVTMTCSANSSVSDMYWFQQRPGSSPRLLIYDTSNLASGVPVRFSGSGSGTSYSLTISRMEAEDAATYYCQQWSTYPWTFGGGTKLEIK
Solution: true

Please examine the following record next.
Problem: Item KCD056 (antibody, V domains shown) VH: EVKLVESGGGLVQPGGSLKVSCAASGFTFSTYTMSWVRQTPEKRLEWVAYITNGGGSTYYPDTEKGRFTISRDNAKNTLYLQMSSLKSEDTAMYYCVRHDYYAMDYWGQGTSVTVSS VL: DIQMTQSPSSLSASLGGKVTITCKASQDINKYIAWYQHKPGKGPRLLIHYTSTLQPGIPSRFSGSGSGRDYSFSISNLEPEDIATYYCLQYDNLLYTFGGGTTLEIK : Kd beneath 20 nM, strictly?
Solution: false
